Values compiled from ChEMBL document CHEMBL1156777.

- Assay text: Selectivity index, ratio of IC50 for rat L6 cells to IC50 for Leishmania donovani MHOM/SD/62/1S-CL2D
- Type: toxicity, cell-based
- Measurement context: read-out: Ratio IC50
Reported property: selectivity ratio

Query: Please indicate selectivity ratio recorded for "Cl.Cl.N=C(N)c1cccc(-n2cc(-c3ccc(C(=N)N)cc3O)nn2)c1"
Result: > 26

Query: Quickly give me recorded selectivity ratio for "COc1ccc(C(=N)N)cc1-n1cc(-c2ccc(C(=N)N)cc2)nn1.Cl.Cl"
Result: > 6

Query: For the compound "Cl.Cl.N=C(N)c1cccc(-n2cc(-c3cc(C(=N)N)ccc3O)nn2)c1" , give its reported selectivity ratio.
Result: > 7

Query: Give reported selectivity ratio value for "COc1cc(C(=N)N)ccc1-c1cn(-c2ccc(C(=N)N)cc2)nn1.Cl.Cl"
Result: 5

Query: For the compound "COc1cc(C(=N)N)ccc1-n1cc(-c2cccc(C(=N)N)c2)nn1.Cl.Cl" , give its measured selectivity ratio value.
Result: > 6

Query: Please indicate selectivity ratio recorded for "Cl.Cl.N=C(N)c1ccc(-n2cc(-c3cccc(C(=N)N)c3)nn2)cc1"
Result: < 1

Query: Tell me selectivity ratio reported for "CC(C)NC(=N)c1ccc(-c2cn(-c3ccc(C(=N)NC(C)C)cc3)nn2)cc1.Cl.Cl"
Result: > 7

Query: Output measured selectivity ratio for this item: "Cl.Cl.Oc1cc(C2=NCCN2)ccc1-c1cn(-c2ccc(C3=NCCN3)cc2)nn1"
Result: > 8

Query: Hello, please tell me recorded selectivity ratio for this one: "COc1ccc(C(=N)N)cc1-c1cn(-c2ccc(C(=N)N)cc2)nn1.Cl.Cl"
Result: > 46

Query: Give selectivity ratio for "COc1cc(C(=N)N)ccc1-c1cn(-c2cccc(C(=N)N)c2)nn1.Cl.Cl"
Result: 15

Query: Annotate the compound "Cl.Cl.N=C(N)c1cccc(-c2cn(-c3cccc(C(=N)N)c3)nn2)c1" with its measured selectivity ratio.
Result: 5

Query: Output measured selectivity ratio for this item: "Cl.Cl.N=C(N)c1ccc(-n2cc(-c3ccc(C(=N)N)cc3O)nn2)cc1"
Result: 11

Query: For the compound "Cl.Cl.N=C(N)c1ccc(-c2cn(-c3ccc(C(=N)N)cc3)nn2)cc1" , report selectivity ratio.
Result: < 1

Query: Specify reported selectivity ratio for the compound shown: "Cl.Cl.N=C(N)c1ccc(-c2cn(-c3cccc(C(=N)N)c3)nn2)cc1"
Result: 5

Query: Provide measured selectivity ratio value, entry: "CC(C)NC(=N)c1ccc(-c2cn(-c3cccc(C(=N)NC(C)C)c3)nn2)cc1"
Result: 3

Query: Tell us which selectivity ratio value is on record for "COc1cc(C(=N)NC(C)C)ccc1-c1cn(-c2cccc(C(=N)NC(C)C)c2)nn1"
Result: > 5

Query: Please give measured selectivity ratio of the following entry: "Cl.Cl.Oc1ccc(C2=NCCN2)cc1-c1cn(-c2ccc(C3=NCCN3)cc2)nn1"
Result: > 4

Query: Return reported selectivity ratio. Input compound: "COc1ccc(C2=NCCN2)cc1-c1cn(-c2cccc(C3=NCCN3)c2)nn1.Cl.Cl"
Result: > 36
